Ki values for Melanocortin receptor 4 (Homo sapiens), compiled from several publications.
Give the number; µM is assumed, so skip it.

-- ask What is its Ki for Melanocortin receptor 4 (Homo sapiens)? Entry: NCCC(=O)N[C@H](Cc1ccc(Cl)cc1Cl)C(=O)N1CCN(c2ncccc2CNC(=O)OCc2ccccc2)CC1
-- reply 0.44

-- ask What is its Ki for Melanocortin receptor 4 (Homo sapiens)? Entry: CSCC[C@H](NC(=O)[C@H](CCCNC(=N)N)NC(=O)[C@H](Cc1ccc(O)cc1)NC(C)=O)C(=O)N[C@@H](CCC(=O)O)C(=O)N[C@@H](Cc1cnc[nH]1)C(=O)N[C@H](Cc1ccccc1)C(=O)N[C@@H](CCCNC(=N)N)C(=O)N[C@@H](Cc1c[nH]c2ccccc12)C(=O)NCC(N)=O
-- reply 0.00055

-- ask What is its Ki for Melanocortin receptor 4 (Homo sapiens)? Entry: CC(C)CC(=O)c1ccccc1N1CCN(C(=O)[C@@H](Cc2ccc(Cl)cc2Cl)NC(=O)CCN)CC1
-- reply 0.024

* * *

pKi values for Melanocortin receptor 4 (Homo sapiens), compiled from several publications.
pKi field: float, defined as -log10 of concentration (mol/L).

-- ask What is its pKi for Melanocortin receptor 4 (Homo sapiens)? Entry: NC(COCc1ccccc1)c1cc(F)ccc1N1CCN(C(=O)CCc2ccc(Cl)cc2Cl)CC1 (configuration not stated)
-- reply 6.00

-- ask What is its pKi for Melanocortin receptor 4 (Homo sapiens)? Entry: CC(C)C[C@@H](O)c1ccccc1N1CCN(C(=O)[C@@H](Cc2ccc(Cl)cc2Cl)NC(=O)CN)CC1
-- reply 8.05

-- ask What is its pKi for Melanocortin receptor 4 (Homo sapiens)? Entry: O=C(Cc1ccccc1)NCC1(N2CCN(C(=O)[C@@H](Cc3ccc(Cl)cc3)NC(=O)C3CC3)CC2)CCCCC1
-- reply 6.89

-- ask What is its pKi for Melanocortin receptor 4 (Homo sapiens)? Entry: O=C(N[C@H](Cc1ccc(Cl)cc1)C(=O)N1CCN(c2ccccc2CN2CCC(N3CCCC3)CC2)CC1)[C@H]1Cc2ccccc2CN1
-- reply 7.62

-- ask What is its pKi for Melanocortin receptor 4 (Homo sapiens)? Entry: CC(C)[C@H](NC(=O)CCN(C)C)c1cccc(F)c1N1CCN(C(=O)[C@@H]2CN(C(C)C)C[C@H]2c2cccc(F)c2)CC1
-- reply 6.25

-- ask What is its pKi for Melanocortin receptor 4 (Homo sapiens)? Entry: CCN(CC)CC(c1cccc(C(F)(F)F)c1)N1CCN(C)CC1 (configuration not stated)
-- reply 6.82

-- ask What is its pKi for Melanocortin receptor 4 (Homo sapiens)? Entry: C[C@@H]1NC(=O)CCC(=O)NCCCC[C@@H](C(N)=O)NC(=O)[C@H](Cc2c[nH]c3ccccc23)NC(=O)[C@H](CCCN=C(N)N)NC(=O)[C@@H](Cc2ccccc2)NC1=O
-- reply 5.77

* * *

Ki values for Melanocortin receptor 4 (Homo sapiens, UniProt P32245), compiled from several publications.
Give the number; nM is assumed, so skip it.

-- ask What is its Ki for Melanocortin receptor 4 (Homo sapiens, UniProt P32245)? Entry: CC(C)[C@H](NC(=O)CCN(C)C)c1cccc(F)c1N1CCN(C(=O)[C@@H]2CN(C(C)C)C[C@H]2c2ccc(F)c(Cl)c2)CC1
-- reply 260

-- ask What is its Ki for Melanocortin receptor 4 (Homo sapiens, UniProt P32245)? Entry: N=C(N)NCCC[C@H](NC(=O)[C@H](Cc1ccccc1)NC(=O)[C@H](Cc1c[nH]cn1)NC(=O)CO)C(=O)N[C@@H](Cc1c[nH]c2ccccc12)C(N)=O
-- reply 440

-- ask What is its Ki for Melanocortin receptor 4 (Homo sapiens, UniProt P32245)? Entry: COc1ccc(Br)cc1CCc1c(Cl)cccc1C(=O)N=C(N)N
-- reply 700

-- ask What is its Ki for Melanocortin receptor 4 (Homo sapiens, UniProt P32245)? Entry: O=C(N[C@H](Cc1ccc(Cl)cc1)C(=O)N1CCN(c2ccccc2CNCCCN2CCCCCC2)CC1)[C@H]1Cc2ccccc2CN1
-- reply 160
